Listed here: items and their measured Ki.
system_tested: Tyrosinase (Agaricus bisporus, UniProt O42713)
Sequence (O42713 whole entry): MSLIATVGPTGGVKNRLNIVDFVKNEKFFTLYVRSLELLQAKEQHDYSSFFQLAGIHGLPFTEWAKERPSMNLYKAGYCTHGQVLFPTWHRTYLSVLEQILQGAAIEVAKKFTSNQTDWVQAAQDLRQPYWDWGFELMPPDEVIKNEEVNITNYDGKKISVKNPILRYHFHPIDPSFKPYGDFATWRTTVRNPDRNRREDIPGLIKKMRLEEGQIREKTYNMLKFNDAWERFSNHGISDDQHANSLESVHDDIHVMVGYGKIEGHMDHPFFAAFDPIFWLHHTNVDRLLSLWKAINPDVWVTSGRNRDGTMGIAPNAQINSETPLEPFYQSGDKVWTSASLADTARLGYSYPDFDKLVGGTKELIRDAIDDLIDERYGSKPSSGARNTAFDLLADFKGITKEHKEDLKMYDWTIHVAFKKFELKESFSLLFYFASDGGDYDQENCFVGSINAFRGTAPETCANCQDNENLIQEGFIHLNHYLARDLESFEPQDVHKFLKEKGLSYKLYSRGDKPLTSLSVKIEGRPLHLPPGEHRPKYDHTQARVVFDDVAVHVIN
procedure_details: Inhibition of mashroom tyrosinase assessed as oxidation of L-DOPA
Phrase the answer as number then unit, nothing more needed.

# example entries with known answers
compound="COc1cc(OC)c(C2CCN(C)C2CO)c(O)c1-c1cc(-c2ccc(F)cc2)[nH]n1 (centres undefined)" result_type=Ki value_observed="12.6 µM"
compound="COc1ccc(-c2cc(-c3c(OC)cc(OC)c(C4CCN(C)C4CO)c3O)n[nH]2)c(OC)c1 (centres undefined)" result_type=Ki value_observed="0.96 µM"
compound="COc1cc(OC)c(C2CCN(C)C2CO)c(O)c1-c1cc(-c2ccc([N+](=O)[O-])cc2Cl)[nH]n1 (centres undefined)" result_type=Ki value_observed="14.6 µM"

Next compound, Ki to be filled in.
[Q] Would you please give the reported Ki of COc1cc(OC)c(C2CCN(C)C2CO)c(O)c1-c1cc(-c2ccccc2Cl)[nH]n1 (centres undefined) with Tyrosinase (Agaricus bisporus, UniProt O42713)?
[A] 11.8 µM
